Taken from patent US9828379B2.

Assayed Target: MAGL (Mus musculus, UniProt O35678)
Sequence (O35678 whole entry): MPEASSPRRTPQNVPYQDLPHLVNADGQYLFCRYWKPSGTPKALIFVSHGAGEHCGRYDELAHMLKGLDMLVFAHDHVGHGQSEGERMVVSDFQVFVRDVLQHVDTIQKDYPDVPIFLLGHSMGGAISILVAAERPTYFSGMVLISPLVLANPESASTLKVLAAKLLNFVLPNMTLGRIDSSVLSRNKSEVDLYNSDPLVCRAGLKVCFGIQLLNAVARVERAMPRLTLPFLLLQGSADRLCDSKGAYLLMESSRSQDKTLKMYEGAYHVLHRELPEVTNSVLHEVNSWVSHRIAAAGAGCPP
Assay Summary: In vitro competitive activity-based protein profiling (Table 2, % inhibition at 1 μM)
Format: biochemical
Condition Notes: read-out: % Inhibition at 1 μM MAGL
Readings of inhibition at 1 µM for the listed compounds
Measured Parameter: inhibition at 1 µM

Compound	Measured Parameter	Result
Cc1cc(CN2CC3CN(C(=O)OC(C(F)(F)F)C(F)(F)F)CC3C2)n(C2CCCCC2)n1 (stereo not shown)	inhibition at 1 µM	> 75%
CC(C)c1ccc(CN2CC3CN(C(=O)ON4C(=O)CCC4=O)CC3C2)c(N2CCOCC2)c1 (stereo not shown)	inhibition at 1 µM	< 25%
CCn1cc(CN2CC3CN(C(=O)OC(C(F)(F)F)C(F)(F)F)CC3C2)c(-c2ccc(N3CCC3)cc2)n1 (stereo not shown)	inhibition at 1 µM	> 75%
O=C(OC(C(F)(F)F)C(F)(F)F)N1CC2CN(Cc3ccc(Cl)cc3N3CCOCC3)CC2C1 (stereo not shown)	inhibition at 1 µM	> 75%

---

// reported inhibition at 1 µM for each item listed
Assayed Target: ABHD6 (Mus musculus, UniProt Q8R2Y0)
Sequence (Q8R2Y0 whole entry): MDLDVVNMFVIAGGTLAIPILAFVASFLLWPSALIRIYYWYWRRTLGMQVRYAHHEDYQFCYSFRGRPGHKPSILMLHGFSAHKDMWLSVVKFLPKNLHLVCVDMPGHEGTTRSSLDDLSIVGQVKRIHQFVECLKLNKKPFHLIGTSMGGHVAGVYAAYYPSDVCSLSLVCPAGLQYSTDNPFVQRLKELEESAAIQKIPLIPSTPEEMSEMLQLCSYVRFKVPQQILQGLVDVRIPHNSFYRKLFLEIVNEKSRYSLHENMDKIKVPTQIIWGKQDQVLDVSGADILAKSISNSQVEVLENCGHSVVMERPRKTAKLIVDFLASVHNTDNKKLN
Assay Summary: In vitro competitive activity-based protein profiling (Table 2, % inhibition at 1 μM)
Format: biochemical
Condition Notes: read-out: % Inhibition at 1 μM ABHD6

Compound	inhibition at 1 µM
O=C(OC(C(F)(F)F)C(F)(F)F)N1CC2CN(Cc3ccc(Cl)cc3N3CCn4ccnc4C3)CC2C1 (stereo not drawn)	25 to 75%
O=C(OC(C(F)(F)F)C(F)(F)F)N1CC2CN(Cc3cccc(Cl)c3N3CCC4(CCOCC4)C3)CC2C1 (stereo not drawn)	< 25%
CCc1cc(CN2CC3CN(C(=O)OC(C(F)(F)F)C(F)(F)F)CC3C2)n(-c2ccccc2Cl)n1 (stereo not drawn)	25 to 75%
O=C(ON1C(=O)CCC1=O)N1CC2CN(Cc3ccc(F)cc3N3CCCC3)CC2C1 (stereo not drawn)	< 25%
CNC(=O)C(OC(=O)N1CC2CN(C(c3ccc(Cl)cc3)c3ccc(Cl)cc3)CC2C1)C(F)(F)F (stereo not drawn)	< 25%
Cc1cccc(CN2CC3CN(C(=O)OC(C(F)(F)F)C(F)(F)F)CC3C2)c1N1CCC2(CCOC2)C1 (stereo not drawn)	< 25%
CC(C)c1cc(CN2CC3CN(C(=O)ON4C(=O)CCC4=O)CC3C2)n(C2CCCCC2)n1 (stereo not drawn)	> 75%
CC(C)c1cc(CN2CC3CN(C(=O)ON4C(=O)CCC4=O)CC3C2)n(C2CCOCC2)n1 (stereo not drawn)	< 25%
CC(=O)N1CCN(c2cc(F)ccc2CN2CC3CN(C(=O)ON4C(=O)CCC4=O)CC3C2)CC1 (stereo not drawn)	< 25%
CC(C)(C)c1cc(CN2CC3CN(C(=O)OC(C(F)(F)F)C(F)(F)F)CC3C2)n(-c2ccccc2Cl)n1 (stereo not drawn)	25 to 75%
O=C(ON1C(=O)CCC1=O)N1CC2CN(Cc3ccc(-c4ccccc4)cc3)CC2C1 (stereo not drawn)	25 to 75%
Cc1c(CN2CC3CN(C(=O)OC(C(F)(F)F)C(F)(F)F)CC3C2)cccc1N1CCC(F)(F)CC1 (stereo not drawn)	< 25%
O=C(OC(C(F)(F)F)C(F)(F)F)N1CC2CN(Cc3ccc(N4CCCC4)cc3C(F)F)CC2C1 (stereo not drawn)	< 25%
O=C(OC(C(F)(F)F)C(F)(F)F)N1CC2CN(Cc3ccc(Cl)cc3N3CCN4CCC[C@@H]4C3)CC2C1 (stereo partly drawn)	< 25%
Cc1c(CN2CC3CN(C(=O)OC(C(F)(F)F)C(F)(F)F)CC3C2)cccc1N1CCN(C)CC1 (stereo not drawn)	< 25%
Cc1c(CN2CC3CN(C(=O)OC(C(F)(F)F)C(F)(F)F)CC3C2)cccc1C(=O)N1CCCCC1 (stereo not drawn)	25 to 75%
O=C(ON1C(=O)CCC1=O)N1CC2CN(Cc3ccc(N4CCOCC4)cc3OC(F)(F)F)CC2C1 (stereo not drawn)	< 25%
O=C(OC(C(F)(F)F)C(F)(F)F)N1CC2CN(Cc3ccc(C(F)F)cc3N3CCCC3)CC2C1 (stereo not drawn)	< 25%
Cn1cc(CN2CC3CN(C(=O)OC(C(F)(F)F)C(F)(F)F)CC3C2)c(-c2ccccc2Cl)n1 (stereo not drawn)	25 to 75%
O=C(ON1C(=O)CCC1=O)N1CC2CN(Cc3ccc(Cl)cc3N3CCOC4CCCC43)CC2C1 (stereo not drawn)	25 to 75%
Cn1cc(CN2CC3CN(C(=O)OC(C(F)(F)F)C(F)(F)F)CC3C2)c(-c2ccccc2)n1 (stereo not drawn)	25 to 75%
O=C(OC(C(F)(F)F)C(F)(F)F)N1CC2CN(Cc3cccc(N4CCC5(CCOC5)C4)c3C(F)(F)F)CC2C1 (stereo not drawn)	< 25%
CS(=O)(=O)N1CCN(c2cc(Cl)ccc2CN2CC3CN(C(=O)ON4C(=O)CCC4=O)CC3C2)CC1 (stereo not drawn)	< 25%
CC(C)n1cc(CN2CC3CN(C(=O)OC(C(F)(F)F)C(F)(F)F)CC3C2)c(C2CCN(S(C)(=O)=O)CC2)n1 (stereo not drawn)	25 to 75%
O=C(OC(C(F)(F)F)C(F)(F)F)N1CC2CN(Cc3ccc(N4CCOCC4)cc3C(F)F)CC2C1 (stereo not drawn)	< 25%
Cc1c(CN2CC3CN(C(=O)OC(C(F)(F)F)C(F)(F)F)CC3C2)cccc1N1CCC(NS(C)(=O)=O)CC1 (stereo not drawn)	< 25%
O=C(OC(C(F)(F)F)C(F)(F)F)N1CC2CN(Cc3cc(CN4CCCC4)cc(OC(F)(F)F)c3)CC2C1 (stereo not drawn)	< 25%
CCn1cc(CN2CC3CN(C(=O)OC(C(F)(F)F)C(F)(F)F)CC3C2)c(-c2ccccc2N2CCC2)n1 (stereo not drawn)	25 to 75%
CC(C)c1ccc(CN2CC3CN(C(=O)ON4C(=O)CCC4=O)CC3C2)c(N2CCOCC2)c1 (stereo not drawn)	< 25%
O=C(OC(C(F)(F)F)C(F)(F)F)N1CC2CN(Cc3ccc(N4CCOCC4)cc3F)CC2C1 (stereo not drawn)	< 25%
